target: SHP2 (Homo sapiens (Human)); assay: pNPP inhibition assay against SHP2; format: biochemical
Sequence (Q06124 247-517): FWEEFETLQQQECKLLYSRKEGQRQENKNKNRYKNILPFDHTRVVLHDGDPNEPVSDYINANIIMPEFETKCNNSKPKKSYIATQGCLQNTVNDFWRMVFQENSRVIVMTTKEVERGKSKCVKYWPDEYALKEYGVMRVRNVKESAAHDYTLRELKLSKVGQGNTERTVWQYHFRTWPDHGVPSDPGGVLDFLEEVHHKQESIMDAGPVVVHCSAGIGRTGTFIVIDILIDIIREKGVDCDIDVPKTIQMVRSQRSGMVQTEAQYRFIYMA
test readout: pIC50
Give bare numbers, as −log10 of the molar value.

Ask: What value of measured pIC50 is listed for `CN(C)c1cc(O)c(C(=O)O)cc1C#Cc1cccc(NC(=O)C(=O)O)c1` ?
Reply: 4.32

----------
target: SHP1 (Homo sapiens (Human)); test: pNPP inhibition assay against SHP1; format: biochemical; settings: pNPP at Km of the PTP
pIC50: −log10 of the molar value.
test readout: pIC50

{"compound": "O=C(O)C(=O)Nc1ccc(C#Cc2ccc(O)cc2)cc1 [Compound 4m]", "pIC50": "< 4.30"}
{"compound": "O=C(O)C(=O)Nc1ccc(C#Cc2ccc(OCc3ccccc3)cc2)cc1 [Compound 4r]", "pIC50": 4.77}
{"compound": "O=C(O)C(=O)Nc1ccc(C#Cc2ccc(C(F)(F)F)cc2F)cc1 [Compound 4v]", "pIC50": "< 4.52"}
{"compound": "COC(=O)c1cc(C#Cc2cccc(NC(=O)C(=O)O)c2)c(N(C)C)cc1O [Compound 4e]", "pIC50": "< 4.30"}

Ask: Checklist item: pIC50 tested on SHP1 (Homo sapiens (Human)), entry COC(=O)c1cc(C#Cc2ccc(NC(=O)C(=O)O)cc2)ccc1O [Compound 4b] , value?
Reply: < 4.30

----------
target: HePTP (Homo sapiens (Human))
Sequence (P35236 97-350): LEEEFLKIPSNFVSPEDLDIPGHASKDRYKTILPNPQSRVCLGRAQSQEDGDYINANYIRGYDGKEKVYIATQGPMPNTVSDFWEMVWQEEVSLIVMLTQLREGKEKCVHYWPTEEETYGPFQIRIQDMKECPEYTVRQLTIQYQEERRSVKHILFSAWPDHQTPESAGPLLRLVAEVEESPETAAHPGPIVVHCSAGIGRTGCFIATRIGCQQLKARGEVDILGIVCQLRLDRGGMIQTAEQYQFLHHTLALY
pIC50: −log10 of the molar value.
test readout: pIC50

Ask: What value of measured pIC50 is listed for `O=C(O)C(=O)Nc1ccc(C#Cc2ccc(C(F)(F)F)cc2)cc1` ?
Reply: < 4.30

----------
Data export: IC50 values recorded with TC-PTP (Homo sapiens (Human), UniProt P17706).
Sequence (P17706 5-275): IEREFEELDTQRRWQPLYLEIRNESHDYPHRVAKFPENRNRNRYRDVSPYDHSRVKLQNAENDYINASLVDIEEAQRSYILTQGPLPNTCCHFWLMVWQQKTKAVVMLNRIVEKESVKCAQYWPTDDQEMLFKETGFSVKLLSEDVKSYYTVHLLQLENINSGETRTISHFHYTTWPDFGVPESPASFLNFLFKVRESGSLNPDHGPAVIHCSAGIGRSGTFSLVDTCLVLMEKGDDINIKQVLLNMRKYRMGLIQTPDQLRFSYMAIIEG

Known IC50 results, listed for orientation:
{"compound": "O=C(O)C(=O)Nc1ccc(C#Cc2ccc(C(F)(F)F)cc2)cc1 [Compound 4k]", "study system": "TC-PTP (Homo sapiens (Human), UniProt P17706)", "IC50": "> 50 µM"}
{"compound": "CN(C)c1cc(O)c(C(=O)O)cc1C#Cc1cccc(NC(=O)C(=O)O)c1 [Compound 4g]", "study system": "TC-PTP (Homo sapiens (Human), UniProt P17706)", "IC50": "> 50 µM"}

As a next step, examine the compound that follows.
Ask: What value of measured IC50 is listed for O=C(O)C(=O)Nc1ccc(C#Cc2ccc(C(F)(F)F)cc2Cl)cc1 [Compound 4t] ?
Reply: > 30 µM

----------
molecular target: mPTPB (Mycobacterium tuberculosis (strain ATCC 25618 / H37Rv), UniProt I6WXK4); format: biochemical
Sequence (I6WXK4 whole entry, looked up): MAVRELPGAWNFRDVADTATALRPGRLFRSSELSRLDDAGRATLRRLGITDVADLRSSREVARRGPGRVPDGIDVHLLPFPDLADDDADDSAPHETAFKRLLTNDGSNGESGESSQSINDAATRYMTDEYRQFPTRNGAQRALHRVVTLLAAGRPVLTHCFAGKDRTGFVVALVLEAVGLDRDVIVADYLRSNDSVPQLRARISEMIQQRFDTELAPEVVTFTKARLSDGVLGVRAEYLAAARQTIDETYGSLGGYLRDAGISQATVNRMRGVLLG
Please provide measured IC50 for the entries that follow.
Answers are plain numbers, in nM.

{"input smiles": "O=C(O)C(=O)Nc1ccc(/C=C\\c2ccccc2)cc1", "unit string": "nM", "IC50": 770}
{"input smiles": "O=C(O)C(=O)Nc1ccc(CCc2ccc(C(F)(F)F)cc2)cc1", "unit string": "nM", "IC50": 197}
{"input smiles": "O=C(O)C(=O)Nc1ccc(/C=C\\c2ccc(C(F)(F)F)cc2)cc1", "unit string": "nM", "IC50": 684}

Hey, quick one: what's IC50 for each of these?
1. O=C(O)C(=O)Nc1ccc(C#Cc2cc(C(F)(F)F)cc(C(F)(F)F)c2)cc1
2. O=C(O)C(=O)Nc1ccc(C#Cc2ccccc2)cc1

Reply:
[60, 257]

Hey, quick one: what's IC50 for each of these?
1. O=C(O)C(=O)Nc1ccc(CCc2ccccc2)cc1
2. CN(C)c1cc(O)c(C(=O)O)cc1C#Cc1cccc(NC(=O)C(=O)O)c1

Reply:
1: 1270; 2: 160

----------
molecular target: CD45 (Homo sapiens (Human))
Sequence (P08575 599-1306, species assumed): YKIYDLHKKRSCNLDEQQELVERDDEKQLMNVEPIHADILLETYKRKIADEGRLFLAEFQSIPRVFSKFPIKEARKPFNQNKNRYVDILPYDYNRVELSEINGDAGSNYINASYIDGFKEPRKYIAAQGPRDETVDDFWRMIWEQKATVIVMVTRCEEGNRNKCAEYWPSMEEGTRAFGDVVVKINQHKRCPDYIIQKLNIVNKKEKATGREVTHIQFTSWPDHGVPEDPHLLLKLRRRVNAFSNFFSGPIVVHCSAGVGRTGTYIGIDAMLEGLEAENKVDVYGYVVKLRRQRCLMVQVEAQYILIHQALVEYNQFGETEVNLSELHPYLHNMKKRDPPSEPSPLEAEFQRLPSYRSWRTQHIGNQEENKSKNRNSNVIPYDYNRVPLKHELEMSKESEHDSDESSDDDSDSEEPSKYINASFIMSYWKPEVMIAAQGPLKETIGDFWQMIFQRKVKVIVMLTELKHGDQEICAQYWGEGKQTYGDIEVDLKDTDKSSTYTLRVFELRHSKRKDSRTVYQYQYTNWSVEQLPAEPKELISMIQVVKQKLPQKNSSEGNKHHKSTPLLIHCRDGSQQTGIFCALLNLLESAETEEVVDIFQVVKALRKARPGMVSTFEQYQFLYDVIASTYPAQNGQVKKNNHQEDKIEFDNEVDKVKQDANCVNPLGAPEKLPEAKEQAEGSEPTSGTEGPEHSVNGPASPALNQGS
pIC50: −log10 of the molar value.
test readout: pIC50

Ask: What value of measured pIC50 is listed for O=C(O)C(=O)Nc1ccc(C#Cc2ccc(C(F)(F)F)cc2)cc1 [Compound 4k] ?
Reply: < 4.52

----------
target: STEP (Homo sapiens (Human), UniProt P54829)
Sequence (P54829 300-555, species assumed): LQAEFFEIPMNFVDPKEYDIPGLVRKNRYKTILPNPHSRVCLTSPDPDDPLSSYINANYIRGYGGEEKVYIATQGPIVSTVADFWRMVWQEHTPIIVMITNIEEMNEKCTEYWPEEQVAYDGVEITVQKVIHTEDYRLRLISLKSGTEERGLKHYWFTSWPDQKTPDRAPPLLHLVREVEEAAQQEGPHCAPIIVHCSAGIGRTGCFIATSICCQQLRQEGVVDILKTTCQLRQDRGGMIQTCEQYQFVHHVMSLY
pIC50: −log10 of the molar value.
test readout: pIC50

Ask: Checklist item: pIC50 tested on STEP (Homo sapiens (Human), UniProt P54829), entry `O=C(O)C(=O)Nc1ccc(C#Cc2ccc(C(F)(F)F)cc2)cc1` , value?
Reply: < 4.52

----------
target: PTPα (Homo sapiens (Human), UniProt P18433)
Sequence (P18433 whole entry, looked up): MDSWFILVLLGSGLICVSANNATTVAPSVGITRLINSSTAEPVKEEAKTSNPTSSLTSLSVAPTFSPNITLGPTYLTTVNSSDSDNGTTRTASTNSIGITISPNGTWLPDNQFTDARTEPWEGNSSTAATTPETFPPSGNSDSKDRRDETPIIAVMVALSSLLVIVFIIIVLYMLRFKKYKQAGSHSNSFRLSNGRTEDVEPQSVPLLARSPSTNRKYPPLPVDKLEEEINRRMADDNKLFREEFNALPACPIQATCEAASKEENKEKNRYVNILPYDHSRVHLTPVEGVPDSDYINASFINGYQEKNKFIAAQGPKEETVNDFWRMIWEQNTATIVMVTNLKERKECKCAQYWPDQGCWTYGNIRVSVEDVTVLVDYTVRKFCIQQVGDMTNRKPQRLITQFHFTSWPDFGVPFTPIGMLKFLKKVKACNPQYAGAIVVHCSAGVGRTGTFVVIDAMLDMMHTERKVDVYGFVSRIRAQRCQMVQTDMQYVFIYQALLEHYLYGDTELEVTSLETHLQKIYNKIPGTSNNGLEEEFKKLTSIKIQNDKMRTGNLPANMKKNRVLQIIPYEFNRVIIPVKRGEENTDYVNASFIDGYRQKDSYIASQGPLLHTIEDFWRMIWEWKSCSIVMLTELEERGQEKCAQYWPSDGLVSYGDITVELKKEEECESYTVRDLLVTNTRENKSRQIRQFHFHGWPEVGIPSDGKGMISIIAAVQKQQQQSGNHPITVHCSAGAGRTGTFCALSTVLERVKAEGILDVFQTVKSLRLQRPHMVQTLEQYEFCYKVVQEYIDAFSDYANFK
pIC50: −log10 of the molar value.
test readout: pIC50

Ask: What value of measured pIC50 is listed for O=C(O)C(=O)Nc1ccc(C#Cc2ccc(C(F)(F)F)cc2)cc1 [Compound 4k] ?
Reply: < 4.52

----------
biological target: VHR (Homo sapiens (Human))
Sequence (P51452 28-179, species assumed): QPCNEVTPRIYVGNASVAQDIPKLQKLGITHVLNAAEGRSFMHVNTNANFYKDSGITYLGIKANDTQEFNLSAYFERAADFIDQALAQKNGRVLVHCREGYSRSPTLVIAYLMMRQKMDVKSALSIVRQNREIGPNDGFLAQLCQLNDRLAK
test readout: IC50

Ask: What value of measured IC50 is listed for `O=C(O)C(=O)Nc1ccc(C#Cc2ccc(C(F)(F)F)cc2)cc1` ?
Reply: > 30 µM

----------
biological target: SHP1 (Homo sapiens (Human), UniProt P29350); test: pNPP inhibition assay against SHP1; type: biochemical
Sequence (P29350 244-515): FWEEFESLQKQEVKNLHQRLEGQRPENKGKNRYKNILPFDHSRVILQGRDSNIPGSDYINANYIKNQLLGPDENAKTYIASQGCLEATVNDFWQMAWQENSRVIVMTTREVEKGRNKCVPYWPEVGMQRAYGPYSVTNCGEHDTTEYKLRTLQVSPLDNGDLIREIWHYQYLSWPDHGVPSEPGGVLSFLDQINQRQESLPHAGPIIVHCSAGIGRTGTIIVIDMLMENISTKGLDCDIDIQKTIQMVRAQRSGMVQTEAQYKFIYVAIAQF
test readout: pIC50
Numbers only, as −log10 of the molar value.

Ask: What value of measured pIC50 is listed for `CN(C)c1cc(O)c(C(=O)O)cc1C#Cc1cccc(NC(=O)C(=O)O)c1` ?
Reply: 4.41

----------
molecular target: PTP1B (Homo sapiens (Human)); assay: pNPP inhibition assay against PTP1B; assay type: biochemical; conditions: pNPP at Km of the PTP
Sequence (P18031 3-277): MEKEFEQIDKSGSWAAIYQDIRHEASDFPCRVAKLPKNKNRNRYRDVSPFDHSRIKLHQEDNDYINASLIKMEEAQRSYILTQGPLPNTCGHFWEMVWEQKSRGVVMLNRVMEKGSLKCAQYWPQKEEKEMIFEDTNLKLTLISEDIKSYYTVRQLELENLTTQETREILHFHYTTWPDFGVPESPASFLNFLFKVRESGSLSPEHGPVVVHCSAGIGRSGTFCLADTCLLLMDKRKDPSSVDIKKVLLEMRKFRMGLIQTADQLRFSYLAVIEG
pIC50: −log10 of the molar value.
test readout: pIC50

{"input smiles": "O=C(O)C(=O)Nc1cccc(-c2ccccc2)c1", "pIC50": "< 4.00"}
{"input smiles": "O=C(O)C(=O)Nc1ccc(C#Cc2ccc(C(F)(F)F)cc2F)cc1", "pIC50": "< 4.52"}
{"input smiles": "O=C(O)C(=O)Nc1ccc(CCc2ccccc2)cc1", "pIC50": "< 4.52"}
{"input smiles": "CC(C)(C)c1ccc(C#Cc2ccc(NC(=O)C(=O)O)cc2)cc1", "pIC50": "< 4.30"}

Hey, quick one: what's pIC50 for each of these?
1. O=C(O)C(=O)Nc1ccc(C#Cc2ccc(C(F)(F)F)cc2)cc1
2. O=C(O)C(=O)Nc1ccc(C#Cc2ccc(OC(F)(F)F)cc2)cc1
3. NS(=O)(=O)c1ccc(C#Cc2ccc(NC(=O)C(=O)O)cc2)cc1
4. COC(=O)c1ccc(C#Cc2ccc(NC(=O)C(=O)O)cc2)cc1
5. CC(C)(C)OC(=O)NCC#Cc1ccc(NC(=O)C(=O)O)cc1
6. O=C(O)C(=O)Nc1ccc(/C=C\c2ccccc2)cc1

Reply:
["< 4.30", "< 4.30", "< 4.30", "< 4.00", "< 4.00", "< 4.52"]

Hey, quick one: what's pIC50 for each of these?
1. O=C(O)C(=O)Nc1ccc(CCc2ccc(C(F)(F)F)cc2)cc1
2. O=C(O)C(=O)Nc1ccc(C#Cc2ccc(C(F)(F)F)cc2Br)cc1
3. O=C(O)C(=O)Nc1ccc(C#Cc2cccc(C(F)(F)F)c2)cc1
4. O=C(O)C(=O)Nc1ccc(C#Cc2ccc(C(F)(F)F)cc2Cl)cc1
5. COC(=O)c1ccc(C#Cc2ccc(NC(=O)C(=O)O)cc2)cc1O
6. CN(C)c1cc(O)c(C(=O)O)cc1C#Cc1ccc(NC(=O)C(=O)O)cc1

Reply:
< 4.52
4.79
4.53
< 4.52
< 4.30
< 4.00

----------
biological target: PTPβ (Homo sapiens (Human), UniProt P23467)
Sequence (P23467 1703-1963): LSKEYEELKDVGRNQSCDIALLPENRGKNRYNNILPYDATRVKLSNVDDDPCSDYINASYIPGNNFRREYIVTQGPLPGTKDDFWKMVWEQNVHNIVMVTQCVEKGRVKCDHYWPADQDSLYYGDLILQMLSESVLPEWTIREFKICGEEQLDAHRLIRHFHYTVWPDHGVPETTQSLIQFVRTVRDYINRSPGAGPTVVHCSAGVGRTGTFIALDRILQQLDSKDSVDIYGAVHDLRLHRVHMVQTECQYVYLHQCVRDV
pIC50: −log10 of the molar value.
test readout: pIC50

Ask: What value of measured pIC50 is listed for O=C(O)C(=O)Nc1ccc(C#Cc2ccc(C(F)(F)F)cc2)cc1 [Compound 4k] ?
Reply: < 4.52

----------
molecular target: PTP1B (Homo sapiens (Human)); test: pNPP inhibition assay against PTP1B; assay type: biochemical; conditions: pNPP at Km of the PTP
pIC50: −log10 of the molar value.
Please provide measured pIC50 for the entries that follow.

{"compound": "O=C(O)C(=O)Nc1ccc(C#Cc2ccc(O)cc2)cc1 [Compound 4m]", "pIC50": "< 4.30"}

Hey, quick one: what's pIC50 for each of these?
1. O=C(O)C(=O)Nc1ccc(-c2ccccc2)cc1 [Compound 6]
2. C#Cc1ccc(NC(=O)C(=O)O)cc1 [Compound 2]

Reply:
[4.21, "< 4.00"]

Hey, quick one: what's pIC50 for each of these?
1. N#Cc1cc(C(F)(F)F)ccc1C#Cc1ccc(NC(=O)C(=O)O)cc1 [Compound 4w]
2. O=C(O)C(=O)Nc1ccc(C#Cc2ccc(O)c(Br)c2)cc1 [Compound 4n]
3. N#Cc1ccc(C#Cc2ccc(NC(=O)C(=O)O)cc2)cc1 [Compound 4o]

Reply:
1. 4.56
2. < 4.30
3. < 4.30

Hey, quick one: what's pIC50 for each of these?
1. O=C(O)C(=O)Nc1cnc2ccccc2c1 [Compound 8, 2-oxo-2-(quinolin-3-ylamino)acetic Acid]
2. O=C(O)C(=O)Nc1cccc(C#Cc2ccccc2)c1 [Compound 5]
3. O=C(O)C(=O)Nc1ccc(/C=C\c2ccc(C(F)(F)F)cc2)cc1 [Compound 10]

Reply:
1: < 4.00; 2: < 4.00; 3: < 4.52
